Target: KRAS 4B G12C protein (Homo sapiens, UniProt P01116, G12C)
Construct: This protein contained 188 amino acids in total, including an N-terminal 6-Histidine tag; made in house; host or cells: E. coli BL21
Experiment: In vitro covalent adduct formation (CAF) assay by LC-MS
Type: binding
Settings: 60 minutes; compound 10 μM, protein 5 μM, 22° C.; percentage of protein bound by the compound
# binarize CAF (10 minutes/60 minutes) at 10 micromolar: 60 minutes: threshold 20% inclusive, high side Yes, low side No

# Compound, Study target, Group
data = [
    ("C=CC(=O)N1CCN(c2nc(OC)nc3c2CN(Cc2cc(O)ccc2Cl)C3)C[C@@H]1CC#N", "KRAS 4B G12C protein (Homo sapiens, UniProt P01116, G12C)", "Yes"),
    ("C=C(F)C(=O)N1CCN(c2nc(OC[C@@H]3CCCN3C)nc3c2CN(Cc2cc(O)ccc2Cl)C3)C[C@@H]1CC#N", "KRAS 4B G12C protein (Homo sapiens, UniProt P01116, G12C)", "Yes"),
    ("C=C(F)C(=O)N1CCN(c2nc(OC[C@@H]3CCCN3C)nc3c2CN(Cc2n[nH]cc2C)C3)C[C@@H]1CC#N", "KRAS 4B G12C protein (Homo sapiens, UniProt P01116, G12C)", "No"),
    ("C=CC(=O)N1CCN(c2nc(OC[C@@H]3CCCN3C)nc3c2CN(Cc2c(Cl)cccc2OC)C3)C[C@@H]1CO", "KRAS 4B G12C protein (Homo sapiens, UniProt P01116, G12C)", "No"),
    ("C=C(F)C(=O)N1CCN(c2nc(OC[C@@H]3CCCN3C)nc3c2CN(C2CCc4cccc(Cl)c42)C3)C[C@@H]1CC#N (stereo partly shown) [1-153]", "KRAS 4B G12C protein (Homo sapiens, UniProt P01116, G12C)", "Yes"),
]

# input Is CAF (10 minutes/60 minutes) at 10 micromolar: 60 minutes at least 20%? Consider C=CC(=O)N1CCN(c2nc(OC[C@@H]3CCCN3C)nc3c2CN(C2CCc4ccccc42)C3)C[C@@H]1CO (stereo partly shown)
# output No

###

Target: KRAS 4B G12C protein (Homo sapiens, UniProt P01116, G12C)
Construct: This protein contained 188 amino acids in total, including an N-terminal 6-Histidine tag; made in house; host or cells: E. coli BL21
Test: In vitro covalent adduct formation (CAF) assay by LC-MS
Assay type: binding
Conditions: 10 minutes; compound 10 μM, protein 5 μM, 22° C.; percentage of protein bound by the compound
CAF (10 minutes/60 minutes) at 10 micromolar: 10 minutes values by entry
Write it as a number; the unit % goes unstated.

# Compound, Quantity unit, Measured number
measured = [
    ("C=C(F)C(=O)N1CCN(c2nc(OC[C@@H]3CCCN3C)nc3c2CN(C2CCc4ccc(Cl)c(Cl)c42)C3)C[C@@H]1CC#N (stereo partly shown) [1-337]", "%", 27),
    ("C=CC(=O)N1CCN(c2nc(Oc3cccc4ccn(C)c34)nc3c2CN(C2CCc4ccccc42)C3)C[C@@H]1CC#N (stereo partly shown) [1-166]", "%", 2),
    ("C=CC(=O)N1CCN(c2nc(OC[C@@H]3CCCN3C)nc3c2CN(C2CCc4ccccc42)C3)C[C@@H]1Cn1ccnc1 (stereo partly shown) [1-219]", "%", 0),
    ("C=CC(=O)N1CCN(c2nc(OC[C@@H]3CCCN3C)nc3c2CN(C2CCCc4ccccc42)C3)C[C@@H]1CC#N (stereo partly shown) [1-52]", "%", 6),
    ("C=C(F)C(=O)N1CCN(c2nc(OC[C@@H]3CCCN3C)nc3c2CN(Cc2cc(NC)ncc2Cl)C3)C[C@@H]1CC#N [1-340]", "%", 0),
]

Next compound, CAF (10 minutes/60 minutes) at 10 micromolar: 10 minutes to be filled in.
# input Field request: CAF (10 minutes/60 minutes) at 10 micromolar: 10 minutes | item: C=CC(=O)N1CCN(c2nc(OC[C@@H]3CCCN3C)nc3c2CN(Cc2c(C)cccc2OC)C3)C[C@@H]1CC#N [1-59]
# output 46

Just for reference, patent US20210292330A1 is where these values come from.
